- METHOD_DESCRIPTION: Pharmacokinetic analysis (intravenous and oral), Method B9
- Type: in vivo
- CONDITION: plasma; Oral, 8 mg/kg
PROPERTY_LABEL: AUC(0-inf) (ng·h/mL)

[
  {
    "COMPOUND": "CC(C)[C@@H]1NCCOc2cccc(F)c2C#CCNC(=O)[C@@H](Cc2ccccc2)NC(=O)[C@H](C(C)O)N(C)C1=O (stereo partly drawn)",
    "PROPERTY_LABEL": "AUC(0-inf)",
    "MEASURED_NUMBER": 1790
  },
  {
    "COMPOUND": "CC(C)[C@@H]1NCCOc2ccccc2C#CCNC(=O)[C@@H](Cc2ccccc2)NC(=O)[C@H](C(C)O)N(C)C1=O (stereo partly drawn)",
    "PROPERTY_LABEL": "AUC(0-inf)",
    "MEASURED_NUMBER": 336
  },
  {
    "COMPOUND": "CC(C)[C@@H]1NCCOc2ccccc2C2CCC(C2)NC(=O)[C@@H](Cc2ccccc2)NC(=O)[C@H](C(C)O)N(C)C1=O (stereo partly drawn)",
    "PROPERTY_LABEL": "AUC(0-inf)",
    "MEASURED_NUMBER": 1110
  }
]

* * *

Recorded measurements of pKi, one per entry
- SYSTEM_TESTED: human ghrelin receptor (GRLN, growth hormone secretagogue receptor, hGHS-R1a) (Homo sapiens, UniProt Q92847)
- Construct: purchased PerkinElmer BioSignal #RBHGHSM, lot#1887; host or cells: HEK-293 cells, stably transfected (membranes)
- Sequence (Q92847 whole entry): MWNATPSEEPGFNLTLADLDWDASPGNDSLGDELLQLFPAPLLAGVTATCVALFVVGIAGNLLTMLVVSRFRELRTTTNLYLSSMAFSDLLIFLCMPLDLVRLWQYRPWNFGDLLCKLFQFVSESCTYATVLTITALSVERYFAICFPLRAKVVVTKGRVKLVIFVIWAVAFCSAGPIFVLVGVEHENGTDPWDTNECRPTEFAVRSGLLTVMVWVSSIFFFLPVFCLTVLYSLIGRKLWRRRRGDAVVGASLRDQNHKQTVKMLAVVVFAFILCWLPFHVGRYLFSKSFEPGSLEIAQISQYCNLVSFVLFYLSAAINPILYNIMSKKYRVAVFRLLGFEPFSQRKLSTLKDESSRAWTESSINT
- METHOD_DESCRIPTION: Competitive radioligand binding assay (ghrelin receptor), Method B1
- CONDITION: Ghrelin receptor binding activity, Method B1
pKi: −log10 of the molar value.
PROPERTY_LABEL: pKi

[
  {
    "MOLECULE": "CCC(C)[C@@H]1NCCOc2ccccc2/C=C/CNC(=O)[C@@H](Cc2ccco2)NC(=O)[C@H](C(C)O)N(C)C1=O (stereo partly drawn) [Compound 1331]",
    "PROPERTY_LABEL": "pKi",
    "RESULT": "7.00 to 8.00"
  },
  {
    "MOLECULE": "CCC(C)[C@@H]1NCCOc2ccccc2CC[C@H](C)NC(=O)[C@@H](Cc2ccccc2)NC(=O)[C@H](C(C)O)N(C)C1=O (stereo partly drawn) [Compound 1302]",
    "PROPERTY_LABEL": "pKi",
    "RESULT": "8.00 to 9.00"
  },
  {
    "MOLECULE": "CCC(C)[C@@H]1NCCOc2ccccc2C[C@@H](O)CNC(=O)[C@@H](Cc2ccccc2)NC(=O)[C@H](C(C)O)N(C)C1=O (stereo partly drawn) [Compound 1339]",
    "PROPERTY_LABEL": "pKi",
    "RESULT": "6.30 to 7.00"
  },
  {
    "MOLECULE": "CCC(C)[C@@H]1NCCOc2ccccc2CCC(C(F)(F)F)NC(=O)[C@@H](Cc2ccccc2)NC(=O)[C@H](C(C)O)N(C)C1=O (stereo partly drawn) [Compound 1349]",
    "PROPERTY_LABEL": "pKi",
    "RESULT": "7.00 to 8.00"
  },
  {
    "MOLECULE": "CCC(C)[C@@H]1NCCOc2ccccc2/C=C/CNC(=O)[C@@H](Cc2ccccc2)NC(=O)[C@H](C(C)O)N(C)C1=O (stereo partly drawn) [Compound 1318]",
    "PROPERTY_LABEL": "pKi",
    "RESULT": "8.00 to 9.00"
  },
  {
    "MOLECULE": "CC(O)[C@H]1C(=O)N[C@H](Cc2ccccc2)C(=O)N[C@@H](C)/C=C/c2ccccc2OCCN[C@@H](C2CC2)C(=O)N1C (stereo partly drawn) [Compound 1317]",
    "PROPERTY_LABEL": "pKi",
    "RESULT": "8.00 to 9.00"
  }
]
